Molecular target: Plasmin (Homo sapiens)
Sequence (P00747 97-580 limits assumed, species assumed): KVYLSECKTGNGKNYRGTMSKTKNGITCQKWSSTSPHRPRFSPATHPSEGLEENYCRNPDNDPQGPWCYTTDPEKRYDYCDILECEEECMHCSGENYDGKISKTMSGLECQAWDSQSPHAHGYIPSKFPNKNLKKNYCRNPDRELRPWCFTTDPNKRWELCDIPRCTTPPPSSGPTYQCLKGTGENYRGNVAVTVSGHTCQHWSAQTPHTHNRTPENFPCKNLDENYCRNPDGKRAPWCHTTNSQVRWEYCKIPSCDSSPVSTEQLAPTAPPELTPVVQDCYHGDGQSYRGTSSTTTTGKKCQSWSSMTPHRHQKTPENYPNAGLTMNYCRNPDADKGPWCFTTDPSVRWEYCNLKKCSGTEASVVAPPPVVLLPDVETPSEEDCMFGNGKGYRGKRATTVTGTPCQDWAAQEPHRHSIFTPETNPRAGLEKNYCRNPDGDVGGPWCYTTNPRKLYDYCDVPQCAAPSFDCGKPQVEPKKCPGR
Sequence (P00747 581-810 limits assumed, species assumed): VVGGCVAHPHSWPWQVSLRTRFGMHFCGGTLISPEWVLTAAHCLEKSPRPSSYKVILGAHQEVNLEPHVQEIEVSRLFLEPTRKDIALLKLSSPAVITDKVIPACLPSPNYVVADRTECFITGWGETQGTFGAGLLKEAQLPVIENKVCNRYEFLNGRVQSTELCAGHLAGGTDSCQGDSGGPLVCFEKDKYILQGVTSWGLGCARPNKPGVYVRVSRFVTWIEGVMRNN
Assay: Anti-plasmin activity (inhibition of TAME hydrolysis)
Format: biochemical
Conditions: TAME hydrolysis; read-out: ID50, Plasmin
Entries annotated with measured IC50
Your answer should be a plain number; it is taken to be in nM.

Here's what some known entries look like.
compound="N=C(NCCOCc1ccccc1)Nc1ccc(C(=O)Oc2ccc3cc(C(=N)N)ccc3c2)cc1 [compound 18]" experimental_system="Plasmin (Homo sapiens)" measured_metric=IC50 endpoint_unit=nM test_value=600
compound="CN(C)C(=N)Nc1ccc(C(=O)Oc2ccc3cc(C(=N)N)ccc3c2)cc1 [compound 9]" experimental_system="Plasmin (Homo sapiens)" measured_metric=IC50 endpoint_unit=nM test_value=2000
compound="CCNC(=N)Nc1ccc(C(=O)Oc2ccc3cc(C(=N)N)ccc3c2)cc1 [compound 10]" experimental_system="Plasmin (Homo sapiens)" measured_metric=IC50 endpoint_unit=nM test_value=5000

Task item: Please report IC50 for the following compound: N=C(N)c1ccc2cc(OC(=O)c3ccc(Nc4ncc[nH]4)cc3)ccc2c1 [compound 7]
Reply: 5000

Task item: Retrieve IC50 measured for N=C(NCCO)Nc1ccc(C(=O)Oc2ccc3cc(C(=N)N)ccc3c2)cc1 [compound 15] and print it.
Reply: 2000

* * *

Reported IC50 values for the following molecules.
Test system: Kallikrein
Assay: Anti-kallikrein activity (inhibition of TAME hydrolysis)
Format: biochemical
Conditions: read-out: ID50, Kallikrein
Give your result in nM as a bare value.

These recorded examples may help you get a feel for the data.
molecule=CCCCNC(=N)Nc1ccc(C(=O)Oc2ccc3cc(C(=N)N)ccc3c2)cc1 test_value=900
molecule=CN=C(NC)Nc1ccc(C(=O)Oc2ccc3cc(C(=N)N)ccc3c2)cc1 test_value=700
molecule=CN(C)C(=N)Nc1ccc(C(=O)Oc2ccc3cc(C(=N)N)ccc3c2)cc1 test_value=900
molecule="N=C(N)c1ccc2cc(OC(=O)c3ccc(NC4=NC5CCCCC5N4)cc3)ccc2c1 (stereo not shown)" test_value=900
molecule=CC(=O)NCCNC(=N)Nc1ccc(C(=O)Oc2ccc3cc(C(=N)N)ccc3c2)cc1 test_value=3000
molecule=CNC(=N)Nc1ccc(C(=O)Oc2ccc3cc(C(=N)N)ccc3c2)cc1 test_value=3000

Task item: Look up IC50 of CCNC(=N)Nc1ccc(C(=O)Oc2ccc3cc(C(=N)N)ccc3c2)cc1 and report it.
Reply: 400

Task item: Please supply the value of reported IC50 for the item N=C(N)c1ccc2cc(OC(=O)c3ccc(Nc4ncc[nH]4)cc3)ccc2c1
Reply: 4000

Task item: Output IC50 of CC1CNC(Nc2ccc(C(=O)Oc3ccc4cc(C(=N)N)ccc4c3)cc2)=N1 (stereo not shown)
Reply: 400

Task item: Output IC50 of N=C(NCCO)Nc1ccc(C(=O)Oc2ccc3cc(C(=N)N)ccc3c2)cc1
Reply: 1000

* * *

System: complement mediated hemolysis
Assay: Inhibition of complement mediated hemolysis
Format: cell-based
Conditions: 1 × 10^-5
Inhibition of complement mediated hemolysis (%) listing for selected compounds.
Numbers only here, please. The scale is %.

Consider the reported Inhibition of complement mediated hemolysis (%) for these compounds:
compound="CC1CNC(Nc2ccc(C(=O)Oc3ccc4cc(C(=N)N)ccc4c3)cc2)=N1 (stereo not drawn) [compound 4]" endpoint_unit=% test_value=100
compound="CN(C)C(=N)Nc1ccc(C(=O)Oc2ccc3cc(C(=N)N)ccc3c2)cc1 [compound 9]" endpoint_unit=% test_value=100

Task item: State recorded Inhibition of complement mediated hemolysis (%) with complement mediated hemolysis, entry CNC(=N)Nc1ccc(C(=O)Oc2ccc3cc(C(=N)N)ccc3c2)cc1 [compound 8] , no comment.
Reply: 100
